B1: Caulobacter ParB omega fusion; a variant is named by its letters at X, in order, B8GW30 (parent)
chain: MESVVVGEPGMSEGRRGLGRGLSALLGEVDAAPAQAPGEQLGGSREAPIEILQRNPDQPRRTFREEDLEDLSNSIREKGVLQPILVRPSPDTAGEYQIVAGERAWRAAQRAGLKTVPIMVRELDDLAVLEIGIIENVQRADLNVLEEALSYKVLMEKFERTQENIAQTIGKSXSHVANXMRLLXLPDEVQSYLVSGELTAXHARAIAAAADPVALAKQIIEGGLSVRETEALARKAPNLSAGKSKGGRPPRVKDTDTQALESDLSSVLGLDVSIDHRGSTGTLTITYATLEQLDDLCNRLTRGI

variants of: B1; assay: one-hybrid fitness for binding NBS DNA (the Noc-binding site; scaled: cognate 1, non-cognate 0); higher = stronger binding; conditions: with NBS DNA site
Over roughly 81,000 sequences, “one-hybrid fitness for binding NBS DNA” has its median near -0.1; the highest 2% begin near 0.36. The list comes from a sample in which the highest values are over-represented; it also holds close analogues and randomly drawn sequences.
Catalogue of one-hybrid fitness for binding NBS DNA readings, one per entry.

# MUTANT_LABEL, LT_GT_EQ, one-hybrid fitness for binding NBS DNA
data = [
    ("VKPI", "≤", 0.2),
    ("QLQH", "≤", 0.2),
    ("QFYG", "≤", 0.2),
    ("QCES", "=", 0.301),
    ("QSAY", "≤", 0.2),
    ("QLHP", "≤", 0.2),
    ("KRMT", "=", 0.539),
    ("QPEY", "≤", 0.2),
    ("PPQT", "≤", 0.2),
    ("QYAS", "=", 0.327),
    ("RTRN", "=", 0.277),
    ("LHEN", "≤", 0.2),
    ("RRDP", "≤", 0.2),
    ("QYKF", "=", 0.229),
    ("QFRR", "=", 0.441),
    ("RRNC", "=", 0.343),
    ("QYDM", "≤", 0.2),
    ("AKVL", "≤", 0.2),
    ("QYYT", "=", 0.352),
    ("KRMS", "=", 0.396),
    ("CKNS", "≤", 0.2),
    ("RCGS", "=", 0.482),
    ("RRAF", "≤", 0.2),
    ("QYKH", "=", 0.569),
    ("YAEG", "≤", 0.2),
    ("RTYH", "≤", 0.2),
    ("QLCR", "=", 0.468),
    ("QYAT", "=", 0.427),
    ("PGSA", "≤", 0.2),
    ("QLHH", "≤", 0.2),
]
